System: Mycobacterium vaccae (JMRC:STI:10670)
Assay: MIC determination
Assay type: cell-based
Conditions: ratio between CC50 (HeLa) and MIC M. vaccae
Examples of molecules with documented Selectivity index follow.

{"columns": ["Molecule", "Selectivity index"],
 "data": [
  ["C[C@H]1COC2(CCN(c3nc(=O)c4cc(C5=NCCO5)cc([N+](=O)[O-])c4s3)CC2)O1 [Compound 7e]", "> 8"]
]}

# ---- query molecule ----
Prompt line: Which Selectivity index is listed for COC(=O)c1cc([N+](=O)[O-])c2sc(N3CCC4(CC3)OC[C@H](C)O4)nc(=O)c2c1 [Compound 6a] ?
Response line: > 500
